- Test system: M19-MEL
- Assay method text: NCI tumour cell line growth inhibition, 48 h
Activity calls are given as the source filed them. Rule as the data show it: active = GI50 up to about 1.1 µM and inactive = higher.
Reply using exactly one outcome from Yes = active, No = inactive

Example entries and their recorded answers appear below.
Compound: N#C/C(=C/c1ccc[nH]1)P(=O)(O)O
Assigned category: No
//
Compound: Cn1c(=O)n(C2(C)C[Se]C2)c2ccccc21
Assigned category: No
//
Compound: N#CC(C(=O)CCC(=O)Nc1cccc(C(F)(F)F)c1)c1ccc(Cl)cc1 (stereo not given)
Assigned category: No

Given COc1cc([C@@H]2c3cc4c(cc3[C@@H](NCc3cccc(C#N)c3)C3COC(=O)[C@@H]32)OCO4)cc(OC)c1O (stereo not given in full) , state the outcome it received in this test.
No

State the result this test recorded for `COc1ccc2[nH]c3c(C)c4cc[n+](COC(=O)c5ccccc5)cc4c(C)c3c2c1` .
Yes

###

- Test system: SR
- Assay method text: NCI tumour cell line growth inhibition, 48 h
Activity calls are given as the source filed them. No stated cut-off is given here; in the data, active = GI50 up to about 1.1 µM and inactive = higher.
I would appreciate it if you answered using one of these outcomes: True for active, False for inactive

Compound: O=C1C(Cl)=C(Cl)C(=O)N1c1cccc(C(F)(F)F)c1
Assigned category: False

Compound: O=C1C=CN(C2OC(CO)C(O)C2O)C(=O)C1 (stereo unspecified)
Assigned category: False

Compound: COCC(C)(C)/N=C/N1Cc2cc3ccccc3nc2C1
Assigned category: False

Compound: CC(C)/C(Cl)=N\OC(=O)Nc1cccc(Cl)c1
Assigned category: False

I'd appreciate the recorded outcome for `N#C/C(=C/c1ccc[nH]1)P(=O)(O)O` from this test.
False

Outcome? `Cc1cccc2nc3n(c12)C(=O)c1ccccc1-3`
False

How was `CC(C)(C)c1ccc(C(C)(C)C)c(N2C(=O)[C@@H]3[C@@H]4C=C[C@@H](C4)[C@]3(C)C2=O)c1` classified in this test?
False

Recorded call for `Cc1cc2nc(C=C(C(F)(F)F)C(F)(F)F)sc2cc1C` ?
True

How did this test come out for `COc1ccc2[nH]c3c(C)c4cc[n+](COC(=O)c5ccccc5)cc4c(C)c3c2c1` ?
True

Outcome logged for `CSC(=S)Nc1cc(C)ccn1` in this assay:
False

Check the results log: what was the call for `COc1cc(C)cc(C(=O)OCc2ccccc2)c1C1=C(Cl)C(=O)C(Cl)=CC1=O` ?
False

###

// reported GI50 per item
- System: MOLT-4
- Assay method text: NCI tumour cell line growth inhibition, 48 h
The source made the active and inactive calls. Cut-off read from the data, not from the text of the source: active = GI50 up to about 1.1 µM and inactive = higher.

Sample answers from the record:
Compound: Nc1ccccc1NC(=O)c1ccc(CNC(=O)OCc2cccnc2)cc1
GI50: 0.557 µM (active)
//
Compound: CC(C)(C)c1ccc(C(C)(C)C)c(N2C(=O)[C@@H]3[C@@H]4C=C[C@@H](C4)[C@]3(C)C2=O)c1
GI50: 14.9 µM (inactive)
//
Compound: CN1COCc2cc3cc4c(cc3nc21)OCCO4
GI50: 11.5 µM (inactive)
//
Compound: COC(O)C(=O)c1c2c(cc3c1CCC3)CCCC2 (stereo not drawn)
GI50: 3.38 µM (inactive)

Kindly state the measured GI50 obtained for `CCOC(=O)c1cnc(-n2[nH]c3c(c2=O)CCCC3)[nH]c1=O` with MOLT-4.
43 µM (inactive)

Provide value of GI50 for this record tested with MOLT-4: `O=C1c2cccnc2-c2nccc3c2c1nc1ccccc13`
0.692 µM (active)

What measured GI50 is associated with `N#Cc1c(N)sc2c1-c1ccccc1OC2` on MOLT-4?
17.5 µM (inactive)
